Assay: Cytotoxicity against human MRC5 cells assessed as reduction in cell viability
Format: toxicity, cell-based
Parameter: CC50 (µM)
One number for each entry, in µM.

Below, each entry is followed by its recorded CC50 result.
1) CCCCCCCCOC(=O)OCOP(=O)(CCCC(=O)N(C)O)OCOC(=O)OCCCCCCCC = 37.7
2) CCCCCCCC(=O)OCOP(=O)(CCCC(=O)N(C)O)OCOC(=O)CCCCCCC = 40.3
3) CCON(C)C(=O)CCCP(=O)(OCOC(=O)OCc1coc(-c2ccccc2O)n1)OCOC(=O)OCc1coc(-c2ccccc2O)n1 = 25.5
4) CCON(C)C(=O)CCCP(=O)(OCOC(=O)c1coc(-c2ccccc2O)n1)OCOC(=O)c1coc(-c2ccccc2O)n1 = 26
5) CN(O)C(=O)CCCP(=O)(OCOC(=O)/C=C/c1ccccc1)OCOC(=O)/C=C/c1ccccc1 = 30.3
6) CN(O)C(=O)CCC(c1ccc(Cl)c(Cl)c1)P(=O)(OCOC(=O)/C=C/c1ccccc1)OCOC(=O)/C=C/c1ccccc1 (centres undefined) = 24.6

Let us move to another entry and its CC50.
Query CC(C)OC(=O)OCOP(=O)(OCOC(=O)OC(C)C)C(CCC(=O)N(C)O)c1ccc(Cl)c(Cl)c1 (centres undefined) yields CC50 of 7.58

----------
For each record, write down the corresponding selectivity ratio.
Experiment: Selectivity index ratio of CC50 for cytotoxicity against human MRC5 cells to IC50 for antiplasmodial activity against asexual blood stage Plasmodium falciparum K1 assessed as inhibition of parasitic growth
Format: toxicity, cell-based
Conditions: read-out: Ratio CC50/IC50

I need selectivity ratio for every entry listed below, if you could help.
1. Cc1ccc(C(=O)OCOP(=O)(CCCC(=O)N(C)O)OCOC(=O)c2ccc(C)cc2)cc1
2. CC(C)OC(=O)OCOP(=O)(CCCC(=O)N(C)O)OCOC(=O)OC(C)C

OUT:
["> 112", "> 461"]

----------
Test: Selectivity index ratio of CC50 for cytotoxicity against human MRC5 cells to IC50 for antibacterial activity against Acinetobacter baumannii assessed as inhibition of bacterial growth
Format: toxicity, cell-based
Conditions: read-out: Ratio CC50/IC50
Parameter: selectivity ratio

Below, each entry is followed by its recorded selectivity ratio result.
1. CN(O)C(=O)CCCP(=O)(OCOC(=O)CCCCc1ccccc1)OCOC(=O)CCCCc1ccccc1 = > 27
2. Cc1ccc(C(=O)OCOP(=O)(CCCC(=O)N(C)O)OCOC(=O)c2ccc(C)cc2)cc1 = > 5.8
3. CN(O)C(=O)CCCP(=O)(OCOC(=O)C(C)(C)C)OCOC(=O)C(C)(C)C = > 4.3
4. CN(O)C(=O)CCCP(=O)(OCOC(=O)CCc1ccccc1)OCOC(=O)CCc1ccccc1 = > 3

Let us move to another entry and its selectivity ratio.
Query `CN(O)C(=O)CCCP(=O)(OCOC(=O)OCCCc1ccccc1)OCOC(=O)OCCCc1ccccc1` yields selectivity ratio of > 25

----------
Tested on: Mycobacterium tuberculosis
Assay: Antitubercular activity against Mycobacterium tuberculosis H37Ra assessed as inhibition of bacterial growth
Type: functional, organism-based
pIC50: −log10 of the molar value.
For each record, write down the corresponding pIC50.

Below, each entry is followed by its recorded pIC50 result.
1. CC(C)OC(=O)OCOP(=O)(CCCC(=O)N(C)O)OCOC(=O)OC(C)C = < 4.19
2. CN(O)C(=O)CCCP(=O)(OCOC(=O)/C=C/c1ccccc1)OCOC(=O)/C=C/c1ccccc1 = < 4.19

I need pIC50 for every entry listed below, if you could help.
1. CCON(C)C(=O)CCCP(=O)(OCOC(=O)c1cccc(O)c1O)OCOC(=O)c1cccc(O)c1O
2. CCON(C)C(=O)CCCP(=O)(OCOC(=O)OCc1coc(-c2ccccc2O)n1)OCOC(=O)OCc1coc(-c2ccccc2O)n1

OUT:
< 4.19
< 4.19

I need pIC50 for every entry listed below, if you could help.
1. CCCCCCCCOC(=O)OCOP(=O)(CCCC(=O)N(C)O)OCOC(=O)OCCCCCCCC
2. CN(O)C(=O)CCCP(=O)(OCOC(=O)C(C)(C)C)OCOC(=O)C(C)(C)C

OUT:
["< 4.19", "< 4.25"]

The measured values listed here are drawn from ChEMBL document CHEMBL5385862.
